system: Aspergillus niger; experiment: Antifungal activity against Aspergillus niger after 24 to 48 hrs by agar well diffusion method; assay type: functional
# inhibition zone (IZ) annotations

QUERY: Give Aspergillus niger inhibition zone (IZ) for O=C(NC(=S)Nc1ncccn1)c1ccccc1
RESULT: <1 mm

QUERY: Give Aspergillus niger inhibition zone (IZ) for Cc1ccc(NC(=S)NC(=O)c2ccccc2)cc1
RESULT: 1 mm

QUERY: Give Aspergillus niger inhibition zone (IZ) for COc1cccc(NC(=S)NC(=O)c2ccccc2)c1
RESULT: 3 mm

QUERY: Give Aspergillus niger inhibition zone (IZ) for OC(Cn1cncn1)(Cn1cncn1)c1ccc(F)cc1F [FLUCONAZOLE]
RESULT: 3 mm

QUERY: Give Aspergillus niger inhibition zone (IZ) for O=C(NC(=S)Nc1ccc(F)cc1)c1ccccc1
RESULT: 3 mm

QUERY: Give Aspergillus niger inhibition zone (IZ) for O=C(NC(=S)Nc1cc(Cl)ccc1Cl)c1ccccc1
RESULT: <1 mm

---

# inhibition zone (IZ) annotations
tested on: Aspergillus niger; experiment: Antifungal activity against Aspergillus niger after 24 to 48 hrs by agar well diffusion method; format: functional

{"MOLECULE_SMILES": "O=C(NC(=S)Nc1ccc(Cl)c(Cl)c1)c1ccccc1", "inhibition zone (IZ)": "<1 mm"}
{"MOLECULE_SMILES": "O=C(NC(=S)Nc1ccccc1Cl)c1ccccc1", "inhibition zone (IZ)": "<1 mm"}

QUERY: What inhibition zone (IZ) value was documented for this compound, CCCCc1ccc(NC(=S)NC(=O)c2ccccc2)cc1 ?
RESULT: <1 mm
